- TEST_DESCRIPTION: chemical genetic growth profiling, strain panel (AID 1159580);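 further: tested at 20 µM; growth read once vehicle control cultures reached saturation at 30 °C; 1 = growth at the plate median or of vehicle wells; lower values mean less growth of the strain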
- DETAILS: S. cerevisiae deletion strains, growth OD, locus YGL086W, strain mad1, stronger effect = lower value
The whole screen tested about 5,500 compounds, of which about 2,000 (36%) were called active. Inconclusive results (about 18%) are left out. The list shows a part of the results.
This listing pairs compounds with measured normalized growth.
Form field (numeric): enter value without unit.

Worked examples follow.
CC(C)(C)NCC(O)c1cc(Cl)c(N)c(Cl)c1 (centres undefined) = 0.997
O=C1C=C2C(=CCOC2O)O1 (centres undefined) = 0.806
CC(=O)O[C@@H]1CC(=O)[C@@]2(C)C(CC(=O)[C@]3(C)C2CC[C@@]2(C)[C@H](c4ccoc4)OC(=O)C4OC423)C1(C)C (some centres undefined) = 1.01

Look at this compound and give its reported normalized growth. CC1(C)C(=O)C=C[C@@]2(C)C1C=C[C@]1(C)C2CC[C@@]2(C)[C@H](c3ccoc3)OC(=O)C3OC321 (some centres undefined)
0.948

Look at this compound and give its reported normalized growth. CC1(C)C(=O)C=C[C@@]2(C)C1C[C@@H](O)[C@]1(C)C2CC[C@@]2(C)[C@H](c3ccoc3)OC(=O)[C@H]3O[C@]321 (some centres undefined)
0.988

Look at this compound and give its reported normalized growth. CC[n+]1c(-c2ccccc2)c2cc(N)ccc2c2ccc(N)cc21
0.856

* * *

This listing pairs molecules with measured normalized growth.
- TEST_DESCRIPTION: chemical genetic growth profiling, strain panel (AID 1159580);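 further: tested at 20 µM; growth read once vehicle control cultures reached saturation at 30 °C; 1 = growth at the plate median or of vehicle wells; lower values mean less growth of the strain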
- DETAILS: S. cerevisiae deletion strains, growth OD, locus YML016C, strain PPZ1, stronger effect = lower value
The whole screen tested about 5,500 compounds, of which about 2,000 (36%) were called active. Roughly 18% stayed inconclusive and do not appear here. This is one part of the list.

Worked examples follow.
C[C@]12CCC3c4ccc(OS(=O)(=O)O)cc4CCC3C1CC[C@H]2O (stereo not given in full) = 0.993 (inactive)
CCOC(=O)NC1=C(C2CC2)C(=O)C(NC(=O)OCC)=C(C2CC2)C1=O = 0.99 (inactive)
CCN(Cc1ccncc1)C(=O)C(CO)c1ccccc1 (stereo not given) = 1 (inactive)
COC(=O)C[C@H]1C(C)(C)C2(Cl)O[C@@]34CC2C(=O)[C@]1(C)C3CC[C@]1(C)C4=CC(=O)O[C@H]1c1ccoc1 (stereo not given in full) = 1.01 (inactive)

Next item in the queue.
Look at this molecule and give its reported normalized growth. CCC/C=C1\OC(=O)C2=C1CCC=C2
1 (inactive)

* * *

- TEST_DESCRIPTION: chemical genetic growth profiling, strain panel (AID 1159580);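 further: tested at 20 µM; growth read once vehicle control cultures reached saturation at 30 °C; 1 = growth at the plate median or of vehicle wells; lower values mean less growth of the strain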
- DETAILS: S. cerevisiae deletion strains, growth OD, locus YAL021C, strain ccr4, stronger effect = lower value
The whole screen tested about 5,500 compounds, of which about 2,000 (36%) were called active. Not shown: some 18% with an inconclusive outcome. Some of the results follow.
REPORTED_PROPERTY: normalized growth
Form field (numeric): enter value without unit.

CCCC(C)(COC(N)=O)COC(=O)NC(C)C (stereo not given) = 1
CCN[C@@H]1C[C@H](N)[C@@H](O[C@H]2OC(CN)=CC[C@H]2N)[C@H](O)[C@H]1OC1OC[C@](C)(O)[C@H](NC)[C@H]1O (stereo not given in full) = 0.983
CN[C@@H]1C(O)[C@@H](O[C@@H]2[C@@H](O)[C@H](O[C@H]3OC(CN)=CC[C@H]3N)[C@@H](N)C[C@H]2N)OC[C@]1(C)O (stereo not given in full) = 1.01

Look at this compound and give its reported normalized growth. CCOCN(C(=O)CCl)c1c(C)cccc1CC
0.988

Look at this compound and give its reported normalized growth. CNC(=O)Oc1cccc2c1OC(C)(C)O2
0.991

All figures here come from PubChem BioAssay AID1159580.
